# System: FXR:RXRa (NR concentration 270 nM, RXRa partner concentration 90 nM)
# Method: PBM binding z-score (relative to random genomic background probes); higher = stronger binding; sequences stand for … in GC…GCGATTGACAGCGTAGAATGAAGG
Measured property: PBM binding z-score
When you answer, write just the number.

primary_sequence=CCTACTGGGCCACGAAAGGTCATTAATTCAGTGA measured_property="PBM binding z-score" reading=3.16
primary_sequence=ATCTCTAGGTAACCAAGTTCAGTTAATGCCGAAC measured_property="PBM binding z-score" reading=0.988
primary_sequence=CCTACTGGGCCATTCAGAGTTCATTGATCATATG measured_property="PBM binding z-score" reading=0.991
primary_sequence=ATATGTAGTTTAGCTGGGGTCATTCAGACTAGGC measured_property="PBM binding z-score" reading=4.14
primary_sequence=ATCTCTAGGTAACCAAGTTCAGTGATTGCCGAAC measured_property="PBM binding z-score" reading=0.358
primary_sequence=TGTACAGGGTCAAAGGCCAGAGTACGAATGTCGA measured_property="PBM binding z-score" reading=7.25
primary_sequence=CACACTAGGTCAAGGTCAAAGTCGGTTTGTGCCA measured_property="PBM binding z-score" reading=7.12
primary_sequence=CCTTACGGGCCAAGGTTATAGCACGGGTGGTACG measured_property="PBM binding z-score" reading=-0.197

Recorded result, TCTTGTAGATCAACAGTAGGTTAAGAAAGATCGA , PBM binding z-score: 0.361

Recorded result, CCGACTAGGTTATGGGGCATTCAGGCAACGGTGA , PBM binding z-score: 0.258

Recorded result, ATCTCTAGGTAAGACTCTGTTCAGTGAAGAACGC , PBM binding z-score: 0.455

Recorded result, GGAACGGGGGCAAAGTTGATAGCATCTGTCGACG , PBM binding z-score: 3.75

----------
# Tested on: PPARg:RXRa 30nM:10nM, anti-RXR (NR concentration 30 nM, RXRa partner concentration 10 nM)
# Method: PBM binding z-score (relative to random genomic background probes); higher = stronger binding; sequences stand for … in GC…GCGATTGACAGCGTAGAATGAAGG
Measured property: PBM binding z-score
When you answer, write just the number.

Example cases with answers are listed next.
primary_sequence=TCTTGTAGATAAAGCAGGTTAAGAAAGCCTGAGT assayed_system="PPARg:RXRa 30nM:10nM, anti-RXR (NR concentration 30 nM, RXRa partner concentration 10 nM)" measured_property="PBM binding z-score" reading=2.82
primary_sequence=TAGCCTCGGTCATGCGGGCCAGTATAGTGTCGGC assayed_system="PPARg:RXRa 30nM:10nM, anti-RXR (NR concentration 30 nM, RXRa partner concentration 10 nM)" measured_property="PBM binding z-score" reading=-0.587
primary_sequence=ATCTCTAGGTAACAAGTTCGGTGAAAGAGAGGAC assayed_system="PPARg:RXRa 30nM:10nM, anti-RXR (NR concentration 30 nM, RXRa partner concentration 10 nM)" measured_property="PBM binding z-score" reading=0.766
primary_sequence=TCCTGTAGATCAAGCAGGTTAAGAAAGCCTGAGT assayed_system="PPARg:RXRa 30nM:10nM, anti-RXR (NR concentration 30 nM, RXRa partner concentration 10 nM)" measured_property="PBM binding z-score" reading=2.38

Recorded result, CGTACTAGGTCATTGACAGGACAGTGAATAGTAA , PBM binding z-score: 3.06

Recorded result, TCTGCTAGGTCAGTTGGTCAGATAACGAGCTGCC , PBM binding z-score: 1.53

Recorded result, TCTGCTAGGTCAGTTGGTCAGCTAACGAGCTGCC , PBM binding z-score: 1.27

Recorded result, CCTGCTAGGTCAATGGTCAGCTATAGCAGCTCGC , PBM binding z-score: 2.6

Recorded result, TCGAGTAGGTTAGTCGGGGCATTCTGCCAACATA , PBM binding z-score: 0.946

Recorded result, CCTATTAGTTGAACATAAGGGCAACCGAAGCTCG , PBM binding z-score: 0.18

Recorded result, CGTCCAAGGTCAAAGGCCAGTGAAGAGATGACGG , PBM binding z-score: 3.55

Recorded result, GATACAGGGTCAGCGAGAGGCCAGAGTATGGAAA , PBM binding z-score: 1.07

Origin of the recorded values: the supplement of paper PMC6555819
